target.system: kindlin-2 (Homo sapiens)
Sequence (Q96AC1 whole entry, species assumed): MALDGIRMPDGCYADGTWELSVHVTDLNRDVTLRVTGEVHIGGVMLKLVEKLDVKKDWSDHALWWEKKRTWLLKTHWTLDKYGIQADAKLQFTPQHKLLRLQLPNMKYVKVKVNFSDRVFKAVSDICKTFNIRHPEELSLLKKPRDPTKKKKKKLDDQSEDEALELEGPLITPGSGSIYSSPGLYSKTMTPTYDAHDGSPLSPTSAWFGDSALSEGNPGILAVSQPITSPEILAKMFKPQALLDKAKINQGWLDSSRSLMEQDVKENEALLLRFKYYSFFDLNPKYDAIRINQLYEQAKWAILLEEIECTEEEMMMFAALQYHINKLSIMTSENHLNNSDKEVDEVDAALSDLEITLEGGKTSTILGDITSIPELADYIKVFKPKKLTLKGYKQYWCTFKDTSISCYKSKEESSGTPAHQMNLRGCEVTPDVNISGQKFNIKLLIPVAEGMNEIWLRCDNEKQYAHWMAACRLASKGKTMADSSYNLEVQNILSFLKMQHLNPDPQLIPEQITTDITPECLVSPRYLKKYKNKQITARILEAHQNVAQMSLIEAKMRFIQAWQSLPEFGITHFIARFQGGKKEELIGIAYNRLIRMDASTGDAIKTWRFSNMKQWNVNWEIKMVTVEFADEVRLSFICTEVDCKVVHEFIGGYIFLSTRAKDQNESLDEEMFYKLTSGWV
assay.procedure: Microscale thermophoresis (MST) affinity measurement
Type: binding
condition.parameters: 200 nM Atto488-labeled β1-tail peptide, 20 mM Tris pH 7.5, 200 mM NaCl, 1 mM TCEP, 0.05% Tween-20
No end group written: not given here.
Record form. Attribute: Kd. Fill in for each entry.
All answers are understood in µM, so give the number only.

Query: Given the entry HDRREFAKFEKEKMNAKWDTGENPIAKSAVTTVVNPKYEGK [β1-Y783A] , report its measured Kd.
Response: 4.9

Query: // same read-out, input: HDRREFAKFEKEKMNAKWDTGENPIYKSAVAAVVNPKYEGK [β1-TT/AA]
Response: 151

Values compiled from paper PMC8761493.
